propertyName: melting point

[[record]]
molecule = "Fc1cc2ncnc(Cl)c2cc1F"
propertyname = "melting point"
result = "89 to 91 °C"

[[record]]
molecule = "Cc1nc(C)c(CCl)s1"
propertyname = "melting point"
result = "62 to 64 °C"

[[record]]
molecule = "COc1ccc(C(=O)CO)cc1Cl"
propertyname = "melting point"
result = "136 to 138 °C"

[[record]]
molecule = "O=C(O)c1cc(-c2cccnc2)nc2ccccc12"
propertyname = "melting point"
result = "323 to 325 °C"

[[record]]
molecule = "CCOc1ccc(C(=O)NN)cc1OC"
propertyname = "melting point"
result = "161 to 163 °C"

[[record]]
molecule = "CCN(CC)S(=O)(=O)c1ccc(N2CC(C(=O)O)CC2=O)cc1 (stereo not drawn)"
propertyname = "melting point"
result = "123 to 127 °C"

[[record]]
molecule = "COc1ccc(N2C(=O)CCC(C(=O)O)C2c2ccccc2OC)cc1 (stereo not drawn)"
propertyname = "melting point"
result = "205 to 208 °C"

[[record]]
molecule = "Cn1nnc2ccc(C(=O)O)cc21"
propertyname = "melting point"
result = "271 to 273 °C"

[[record]]
molecule = "CC(=O)N1CCC(C)(C(=O)O)C1 (stereo not drawn)"
propertyname = "melting point"
result = "120 to 122 °C"

[[record]]
molecule = "O=C(O)c1cc(S(=O)(=O)Cl)ccc1Cl"
propertyname = "melting point"
result = "105 to 115 °C"

[[record]]
molecule = "OC1CCCC1N1CCN(c2cccc(Cl)c2)CC1 (stereo not drawn)"
propertyname = "melting point"
result = "99 to 101 °C"

[[record]]
molecule = "CCOC(=O)c1oc2ccc(OC)cc2c1C"
propertyname = "melting point"
result = "103 to 105 °C"

[[record]]
molecule = "O=[N+]([O-])c1ccc(S)nc1"
propertyname = "melting point"
result = "169 to 171 °C"


---

Reported melting point by item:
propertyName: melting point

[[record]]
molecule = "CC1(c2ccc3c(c2)OCO3)NC(=O)NC1=O (stereo not drawn)"
result = "197 to 199 °C"

[[record]]
molecule = "Oc1ccnc2cc(Cl)c(Br)cc12"
result = "369 to 371 °C"

[[record]]
molecule = "NCC(=O)Nc1cccc2ncccc12"
result = "128 to 130 °C"

[[record]]
molecule = "CCCOc1nc(C(=O)O)cc2ccccc12"
result = "159 to 161 °C"

[[record]]
molecule = "Cc1cccc(C(=O)O)c1-n1cccc1"
result = "127 to 129 °C"

[[record]]
molecule = "Nc1ccc(OCc2cccc(C(F)(F)F)c2)cc1"
result = "67 to 69 °C"

[[record]]
molecule = "CC(C(=O)O)S(C)(=O)=O (stereo not drawn)"
result = "86 to 88 °C"

[[record]]
molecule = "O=c1[nH]cnc2cc(F)c([N+](=O)[O-])cc12"
result = "292 to 294 °C"

[[record]]
molecule = "O=C(O)c1csc(-c2ccccc2)n1"
result = "160 to 161 °C"

[[record]]
molecule = "Cc1cc(Cl)c2cccc([N+](=O)[O-])c2n1"
result = "109 to 111 °C"

[[record]]
molecule = "COc1cc(Br)c(S(=O)(=O)Cl)cc1C(=O)O"
result = "196 to 198 °C"

[[record]]
molecule = "CC(C)c1noc2nc(-c3cccnc3)cc(C(=O)O)c12"
result = "279 to 281 °C"

[[record]]
molecule = "Cc1ccc(-c2ccc(C=O)o2)cc1"
result = "53 to 55 °C"

[[record]]
molecule = "Cc1cccc(NC(=O)CCl)c1"
result = "128 to 130 °C"

[[record]]
molecule = "NC(CSCCc1ccccc1)C(=O)O (stereo not drawn)"
result = "210 to 212 °C"

[[record]]
molecule = "CN(C)S(=O)(=O)c1ccc(O)cc1"
result = "95 to 97 °C"

[[record]]
molecule = "O=C1C(Br)CCN1c1ccccc1F (stereo not drawn)"
result = "76 to 78 °C"

[[record]]
molecule = "CC(O)CNc1nc2ccccc2[nH]1 (stereo not drawn)"
result = "186 to 188 °C"

[[record]]
molecule = "O=S(=O)(Cc1ccccc1)N1CCNCC1"
result = "129 to 131 °C"

[[record]]
molecule = "CCOC(=O)COc1ccc(O)cc1"
result = "121 to 123 °C"

[[record]]
molecule = "Cc1nnnn1-c1cc(N)ccc1F"
result = "109 to 111 °C"

[[record]]
molecule = "CC1(C)C(=O)Nc2ccc(C(=O)CCl)cc21"
result = "233 to 235 °C"

[[record]]
molecule = "CCN(c1ccccc1)c1ccc(C(=O)O)cc1"
result = "178 to 180 °C"

[[record]]
molecule = "CC1CC(C(F)(F)F)c2c(n(C)[nH]c2=O)N1 (stereo not drawn)"
result = "202 to 204 °C"

[[record]]
molecule = "CC(=O)c1ccc(N2CCNCC2)c(F)c1"
result = "104 to 106 °C"

[[record]]
molecule = "Cc1cc(N)ccc1NC(=O)c1cccc(S(C)(=O)=O)c1"
result = "149 to 151 °C"

[[record]]
molecule = "CC(C)CNC(=O)c1ccccc1N"
result = "109 to 111 °C"

[[record]]
molecule = "O=C(Nc1ccc(Cl)cn1)Nc1ccccc1C(=O)O"
result = "245 to 247 °C"

